Tested on: Mycobacterium tuberculosis
experiment_summary: Cornell - Phenotypic assay to identify agents that inhibit growth of Mycobacterium tuberculosis
Format: functional
Set-up: scale not given: direction of the effect not stated beside the values
condition_set: 10 mM as filed; unlikely as a test dose
Hit rate of the full screen: of about 53,000 compounds, about 900 (1.7%) showed an effect of 50% or more. This excerpt belongs to a sample that is enriched for strong results.
property_measured: Percent Effect (%)

In [3]: df
Out[3]:
                                    molecule                 target_desc  readout_unit  assay_value
 0  Cc1csc(CN2CC[C@H]3C[C@@H](c4nnc(C)[nH]4)O[C@@H]3C2)n1  Mycobacterium tuberculosis             %       -4.039
 1         CCOc1ccc(NC(=O)NCc2csc(NC)n2)cc1C  Mycobacterium tuberculosis             %        21.98
 2  COc1cccc(N2CCC(CNC(=O)NCc3ccco3)C2)c1 (centres undefined)  Mycobacterium tuberculosis             %       -31.24
 3          CCCSc1nc(O)c(CC)c(=O)n1-c1ccccc1  Mycobacterium tuberculosis             %        98.89
 4      CN(CCS(=O)(=O)c1cc(Cl)ccc1Cl)CC(N)=O  Mycobacterium tuberculosis             %        108.8
 5       Cc1ccc(S(=O)(=O)N(C)CC(N)=O)c(Cl)c1  Mycobacterium tuberculosis             %        18.08
 6  CCc1c(O)nc(SCC(=O)Nc2ccccc2)n(C(C)CC)c1=O (centres undefined)  Mycobacterium tuberculosis             %        65.15
 7  COc1ccccc1N1CCC(CNCc2cccc(O)c2)C1 (centres undefined)  Mycobacterium tuberculosis             %        38.06
 8        CCOc1ccc(NC(=O)NCCS(=O)(=O)CC)cc1C  Mycobacterium tuberculosis             %        60.38
 9  CN(CC(=O)Nc1ccon1)S(=O)(=O)c1cc(Cl)ccc1Cl  Mycobacterium tuberculosis             %       -21.56
10  CCc1c(O)n(C(C)CC)c(SCC(=O)c2ccccc2)nc1=O (centres undefined)  Mycobacterium tuberculosis             %        28.35
11     CC(C)N(C)S(=O)(=O)N(Cc1cccs1)Cc1cccs1  Mycobacterium tuberculosis             %        53.57
12  CN(C(=O)Cn1nc(-c2ccccc2F)ccc1=O)C1CCS(=O)(=O)C1 (centres undefined)  Mycobacterium tuberculosis             %        18.26
13          Fc1ccc(C2(CNC3=NCCN3)CCCC2)cc1.I  Mycobacterium tuberculosis             %        20.05
14           CCN(Cc1cccs1)S(=O)(=O)N(C)C(C)C  Mycobacterium tuberculosis             %        30.52
15  COc1ccc(Cc2c(O)nc(SC)n(-c3ccccc3)c2=O)cc1  Mycobacterium tuberculosis             %       -12.72
16  N#Cc1cccc(NC2CC(=O)N(CCCc3ccccc3)C2)n1 (centres undefined)  Mycobacterium tuberculosis             %        2.519
17  N#Cc1cccc(NC2CC(=O)N(C3Cc4ccccc4C3)C2)n1 (centres undefined)  Mycobacterium tuberculosis             %        53.28
18  O=C1C(n2nnc(-c3cccs3)n2)CCN1CC(F)(F)F (centres undefined)  Mycobacterium tuberculosis             %        21.02
19  Nc1ncc(-c2ccc(NC(=O)[C@@H]3CCCCN3)cc2)cn1  Mycobacterium tuberculosis             %        -8.73
20  CN(CCS(=O)(=O)c1cc(Cl)ccc1Cl)CC(=O)Nc1cccc(F)c1  Mycobacterium tuberculosis             %        108.9
21         O=C1CCC2(CCN(Cc3cscn3)CC2)CN1CCCO  Mycobacterium tuberculosis             %        5.461
22        COc1ccc(Cl)cc1S(=O)(=O)N(C)CC(N)=O  Mycobacterium tuberculosis             %        28.08
23  CN(CC(=O)Nc1cccc(F)c1)Cc1nc(N)nc(N(C)C)n1  Mycobacterium tuberculosis             %        30.17

Values from ChEMBL document CHEMBL3988442
